assay: Cytotoxicity determination in HepG2.2.15 cells (CCK-8 cell viability); assay type: cell-based; conditions: human, 6 days treatment, CCK-8 assay, highest concentration 100 uM
observation-type: CC50 at 6 days

>>> reported_value("COC(=O)C1=C(CN2CC(F)(F)[C@@H]3CN(C(=O)C(C)(C)C(=O)O)C[C@@H]32)NC(c2nccs2)=N[C@H]1c1ccc(F)cc1Cl (single isomer, unassigned)")
"> 100 µM"
>>> reported_value("CCOC(=O)C1=C(CN2CC(F)(F)[C@H]3[C@@H]2CCN3CCC(C)(C)c2nnn[nH]2)NC(c2nccs2)=N[C@H]1c1cccc(F)c1C (single isomer, unassigned)")
"13.1 µM"
>>> reported_value("CCOC(=O)C1=C(CN2CC(F)(F)[C@H]3[C@@H]2CCN3C2CC3(CC(C(=O)O)C3)C2)NC(c2nccs2)=N[C@H]1c1cccc(F)c1C (single isomer, unassigned)")
"12.5 µM"
>>> reported_value("CCOC(=O)C1=C(CN2CC(F)(F)[C@H]3[C@@H]2CCN3c2ncc(C(=O)O)cn2)NC(c2nccs2)=N[C@H]1c1cccc(F)c1C (single isomer, unassigned)")
"15 µM"
>>> reported_value("CCOC(=O)C1=C(CN2CC(F)(F)[C@H]3[C@@H]2CCN3C2CCC(C(=O)O)CC2)NC(c2nccs2)=N[C@H]1c1cccc(F)c1C (single isomer, unassigned) [Compound 104B]")
"> 6.2 µM"

* * *

Assay: Cytotoxicity determination in HepG2.2.15 cells (CCK-8 cell viability)
Format: cell-based
Conditions: human, 6 days treatment, CCK-8 assay, highest concentration 100 uM
Experimental: HepG2.2.15 (the HepG2.2.15 cell line can be produced by transfection of the HepG2 cell line as described in Sells, Chen, and Acs 1987 (Proc. Natl. Acad. Sci. USA 84: 1005-1009), and the HepG2 cell line is available from ATCC® under number HIB-8065™) […] Cell viability was determined by CCK-8 assay. […] The absorbance at 450 nm wavelength and the absorbance at 630 nm wavelength as reference was measured. 2) DATA Analysis EC50 and CC50 values are calculated by the GRAPTIPAD PRISM software.
observation-type: CC50 at 6 days (µM)

>>> reported_value("CCOC(=O)C1=C(CN2CC(F)(F)[C@@H]3CN(C4(C(=O)O)CC4)C[C@@H]32)NC(c2nccs2)=N[C@H]1c1cccc(F)c1C (single isomer, unassigned)")
12.8
>>> reported_value("CCOC(=O)C1=C(CN2CC(F)(F)[C@@H]3C(=O)N(CCC(C)(C)C(=O)O)C[C@@H]32)NC(c2nccs2)=N[C@H]1c1cccc(F)c1C (single isomer, unassigned)")
48.2
>>> reported_value("CCOC(=O)C1=C(CN2CC(F)(F)[C@@H]3CN([C@H]4C[C@@H](C(=O)O)C4)C(=O)[C@@H]32)NC(c2nccs2)=N[C@H]1c1cccc(F)c1C (single isomer, unassigned)")
52.9
>>> reported_value("CCOC(=O)C1=C(CN2CC(F)(F)[C@H]3[C@@H]2CCN3c2nc(C(=O)O)cs2)NC(c2nccs2)=N[C@H]1c1cccc(F)c1C (single isomer, unassigned)")
7.7
>>> reported_value("CCOC(=O)C1=C(CN2CC(F)(F)[C@@H]3CN(CC(C)(C)C(=O)O)C(=O)[C@@H]32)NC(c2nccs2)=N[C@H]1c1cccc(F)c1C (single isomer, unassigned) [Compound 13B]")
38.6

// provenance: patent US20230083012A1
